test: recombinant UMI read abundance after kanamycin selection (control-corrected) (log10(CPM+1)); higher = more efficient recombination; extreme values may be limits of the assay; sequences stand for … in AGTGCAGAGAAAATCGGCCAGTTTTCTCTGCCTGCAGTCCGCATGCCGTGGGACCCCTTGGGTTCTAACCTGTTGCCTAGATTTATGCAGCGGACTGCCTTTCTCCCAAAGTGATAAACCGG…AGGTTGGTTTCACT; site = the 11-nt donor;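 further: IS621 bridge recombinase in Escherichia coli cells against a fixed T5 target plasmid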
ASSAY ENDPOINT: recombinant UMI read abundance (log10)
Returns: the value as a bare number; no unit string appended.

Inquiry: Recorded recombinant UMI read abundance (log10) for GGGGCACCATGGACCGGTTTTCCCGGTAATCCGTATTTGGA (site GGGGCACCTTA) , please?
Reply text: 0

Inquiry: Reported recombinant UMI read abundance (log10), sequence AGGAAGTCATGGACCGGTTTTCCCGGTAATCCGTATTTGTA (site AGGAAGACTTG) : ____
Reply text: 0

Inquiry: Requested read-out: recombinant UMI read abundance (log10). Entry: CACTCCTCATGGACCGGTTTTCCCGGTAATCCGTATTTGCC (site CCCTCCTCTGG)
Reply text: 0.97

Inquiry: Sample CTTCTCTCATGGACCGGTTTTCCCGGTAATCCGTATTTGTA (site CTTCTCTCTTA) — what was its recombinant UMI read abundance (log10)?
Reply text: 2.28

Inquiry: Reported recombinant UMI read abundance (log10) for TCATAATCATGGACCGGTTTTCCCGGTAATCCGTATTTGCA (site TCATACTCTTG) : what is it?
Reply text: 0.606

Inquiry: # lookup: recombinant UMI read abundance (log10) of CGTTAGTCATGGACCGGTTTTCCCGGTAATCCGTATTTGAG (site CGTTAGTCTCT)
Reply text: 2.05

Inquiry: Can you look up the measured recombinant UMI read abundance (log10) of TCAATTGCATGGACCGGTTTTCCCGGTAATCCGTATTTGCG (site TCAATTGCTCG) for me?
Reply text: 1.52

Inquiry: Bench note: what recombinant UMI read abundance (log10) did TCGAAGCCATGGACCGGTTTTCCCGGTAATCCGTATTTGGG (site CCGAAGCCTCC) show?
Reply text: 0.0131

Inquiry: Entry under review: CTGTTAGCATGGACCGGTTTTCCCGGTAATCCGTATTTGTG (site CGGTTAGCTCA) . Reported recombinant UMI read abundance (log10)?
Reply text: 0.0126

Inquiry: Param item = AGAAAGACATGGACCGGTTTTCCCGGTAATCCGTATTTGCT (site AGAAAGCCTAG) ; retrieve measured recombinant UMI read abundance (log10).
Reply text: 0.934

Inquiry: I have this sequence here, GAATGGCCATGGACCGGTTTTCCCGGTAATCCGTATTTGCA (site GAACGGCCTTG) , and I need its recorded recombinant UMI read abundance (log10).
Reply text: 0

Inquiry: What recombinant UMI read abundance (log10) value was documented for this sequence, CGGTAGACATGGACCGGTTTTCCCGGTAATCCGTATTTGAG (site CGGTAGACTCT) ?
Reply text: 1.9

Inquiry: I would be grateful if you could share the reported recombinant UMI read abundance (log10) for AGCCGAGCATGGACCGGTTTTCCCGGTAATCCGTATTTGTT (site AGCCTAGCTAA) .
Reply text: 0.00511

Inquiry: For the sequence AAGCTCACATGGACCGGTTTTCCCGGTAATCCGTATTTGAT (site AAGCTCACTAT) , what recombinant UMI read abundance (log10) is on record?
Reply text: 1.97

Inquiry: Entry GTGCACGCATGGACCGGTTTTCCCGGTAATCCGTATTTGGT (site GTGCAAGCTAC) has what recombinant UMI read abundance (log10)?
Reply text: 0.553

Inquiry: Would you mind telling me what recombinant UMI read abundance (log10) value was observed for TTATTTACATGGACCGGTTTTCCCGGTAATCCGTATTTGAA (site TTATTTACTTT) ?
Reply text: 0.00385

Inquiry: Which measured recombinant UMI read abundance (log10) value corresponds to GCTTGCACATGGACCGGTTTTCCCGGTAATCCGTATTTGAT (site GCTTGCGCTAT) ?
Reply text: 0.0165

Inquiry: What recombinant UMI read abundance (log10) value was documented for this sequence, CAATGCTCATGGACCGGTTTTCCCGGTAATCCGTATTTGTA (site CAATGCTCTTG) ?
Reply text: 2.25

All figures here come from the supplement of paper PMC11208160.
